Tested on: SKOV-3
Test: Cytotoxicity (growth inhibition), 96 hour exposure, ovarian cell line panel
Conditions: read-out: Cytotoxicity IC50, SKOV-3, SKOV-3 ovarian cell line
pIC50: −log10 of the molar value.
MEASUREMENT_LABEL: pIC50

>  <COMPOUND>
CN(C)CCCOc1ccc(-c2nc3cc(-c4ccc5[nH]c(-c6ccc(OCCCN(C)C)cc6)nc5c4)ccc3[nH]2)cc1

>  <MEASUREMENT_LABEL>
pIC50

>  <VALUE_QUALIFIER>
=

>  <READOUT_VALUE>
6.43

$$$$
>  <COMPOUND>
Oc1ccc(-c2nc3cc(-c4ccc5[nH]c(-c6ccc(O)cc6)nc5c4)ccc3[nH]2)cc1

>  <MEASUREMENT_LABEL>
pIC50

>  <VALUE_QUALIFIER>
=

>  <READOUT_VALUE>
4.80

$$$$
>  <COMPOUND>
CN1CCN(c2ccc3[nH]c(-c4ccc5[nH]c(-c6ccc(O)cc6)nc5c4)nc3c2)CC1 [Hoechst 33258, reference compound]

>  <MEASUREMENT_LABEL>
pIC50

>  <VALUE_QUALIFIER>
<

>  <READOUT_VALUE>
4.00

$$$$

Origin of the recorded values: patent US6589971B1
